tested on: EKVX NSCLC; assay: NCI-60 one-dose screen, 48 h (100 = growth as untreated, 0 = no growth, -100 = all killed); settings: 10 µM
The panel holds about 83,000 compounds, 20% with a hit somewhere; the sample as a whole holds those more often. Active and inactive are the calls of the source. How the source made its calls: active means growth percent below 10; inactive means the rest. Where a SMILES comes first, the peptide text is derived from it.
Kindly supply the reported growth values for the records listed here.

Reference set (5 entries):
compound="OCC1OC(O)C(O)C(O)C1O (stereo not given)" property_measured=growth reported_value="114% (inactive)"
compound="NC(Cc1ccccc1)C(=O)NC(Cc1ccccc1)C(=O)O (stereo not drawn) (H-Phe-Phe-OH; configuration not given here)" property_measured=growth reported_value="98% (inactive)"
compound="COc1ccc(C(=O)CC(c2ccccc2)C(C#N)c2ccccc2)cc1 (stereo not given)" property_measured=growth reported_value="84.9% (inactive)"
compound=Cc1ccc(S(=O)(=O)c2ccccc2)cc1 property_measured=growth reported_value="76.7% (inactive)"
compound=Cl property_measured=growth reported_value="100% (inactive)"

Return reported growth values for all items listed beneath this line.
1. O=[N+]([O-])c1cccc(SSc2cccc([N+](=O)[O-])c2)c1
2. c1ccc(-c2nc3ccccc3s2)cc1
3. CCc1cc(C)cc(O)c1
4. CC(C)NC(=O)N/C=C(\C#N)C(N)=O
5. CC(=O)OCC1OC(OC(C)=O)C(OC(C)=O)C(OC(C)=O)C1OC(C)=O (stereo not given)
6. O=C(/C=C/c1ccccc1)c1ccccc1
7. CC(=O)Nc1ccc(S(N)(=O)=O)cc1
8. Nc1ncnc2c1ncn2C1OC(COP(=O)(O)O)C(O)C1O (stereo not given)

1. 106% (inactive)
2. 85.5% (inactive)
3. 101% (inactive)
4. 97.2% (inactive)
5. 99.7% (inactive)
6. 93.4% (inactive)
7. 102% (inactive)
8. 113% (inactive)

###

tested on: MCF7 breast; assay: NCI-60 one-dose screen, 48 h (100 = growth as untreated, 0 = no growth, -100 = all killed); conditions: 10 µM unless noted
The panel holds about 83,000 compounds, 20% with a hit somewhere; the sample as a whole holds those more often.
Kindly supply the reported growth values for the records listed here.
Answers are plain numbers, in %.

molecule=Cc1ccc(S(=O)(=O)c2ccccc2)cc1 quantity_unit=% reported_value=20.9
molecule=CCCCCCCCCCNC(=O)CI quantity_unit=% reported_value=10.7

Return reported growth values for all items listed beneath this line.
1. O=c1n(CC2CO2)c(=O)n(CC2CO2)c(=O)n1CC1CO1 (configuration not stated)
2. Oc1ccc(Cc2ccccc2Cl)c(O)c1
3. CCOC(=O)c1c(C)cc(=O)oc1C
4. Cc1cc(-c2cc(C)c(O)c(C)c2)cc(C)c1O

1. 42.5
2. 119
3. 97.1
4. 91.6

Return reported growth values for all items listed beneath this line.
1. N#CC(C#N)N=Nc1ccc(Cl)cc1
2. NN1CCOC(c2ccccc2)C1 (configuration not stated)
3. O=C(/C=C/c1ccccc1)c1ccccc1
4. CCCCCCCCCCCCCCCc1ccc(N)c(OC2OC(CO)C(O)C(O)C2O)c1 (configuration not stated)
5. c1ccc2c(c1)OC1OC2Oc2ccccc21

1. 27.3
2. 91.8
3. -2.52
4. 93.7
5. 107

Return reported growth values for all items listed beneath this line.
1. CC(C)(O)C(=O)O
2. COc1ccc(Nc2ccc3ccccc3c2)cc1
3. Cn1cnc([N+](=O)[O-])c1Sc1ncn[nH]1
4. CC1=C/C(O)CC(=O)Cc2nc(co2)C(=O)N2CCC=C2C(=O)OC(C(C)C)C(C)/C=C\C(=O)NC/C=C\1 (configuration not stated)
5. CC1CCC2(OC1)OC1CC3C4CC=C5CC(O)CCC5(C)C4CCC3(C)C1C2C (configuration not stated)
6. Nc1nc(N)c2[nH]cnc2n1
7. O=C(O)CCCl

1. 93.8
2. 58.1
3. 102
4. 71.8
5. 105
6. 54.2
7. 97.5
